- System: U-118 Glioblastoma cell line
- Protocol Notes: DIMSCAN cytotoxicity, fenretinide + L-threo-sphinganines 3:1 (Example B5)
- Type: cell-based, human
- Condition Label: U-118 MG; 4-HPR 6 μM + L-threo-sphinganine 2 μM; 96 h
Measure: Fa (fraction affected)
API doc: respond with a numeric literal and nothing else, no unit.

Molecule	Val
CCCCCCCCCCCCCCCCC[C@H](O)[C@@H](N)CO [C20, (2S,3S)-2-amino-1,3-icosanediol]	0.998

In plain terms, CCCCCCCCCCC[C@H](O)[C@@H](N)CO [C14] has a documented Fa (fraction affected) of 0.814

CCCCCCCCCCCCCCC[C@H](O)[C@@H](N)CO [C18, (2S,3S)-2-amino-1,3-octadecanediol, reference compound] has a reported Fa (fraction affected) of 0.976

Record CCCCCCCCCCCC[C@H](O)[C@@H](N)CO [C15] , field Fa (fraction affected): 0.847

molecule CCCCCCCCCCCCCC[C@H](O)[C@@H](N)CO [C17, (2S,3S)-2-amino-1,3-heptadecanediol] , Fa (fraction affected) observed: 0.951

Just so you know, measured Fa (fraction affected) for CCCCCCCCCCCCCCCCCC[C@H](O)[C@@H](N)CO [C21] came out at 0.995

Measured Fa (fraction affected), CCCCCCCCCCCCCCCC[C@H](O)[C@@H](N)CO [C19, (2S,3S)-2-amino-1,3-nonadecanediol] : 0.991

For CCCCCCCCC[C@H](O)[C@@H](N)CO [C12] the molecule record lists Fa (fraction affected) as 0.988

----------
Reported values of CI for individual entries
- Test system: OE-33 esophageal adenocarcinoma cell line
- Protocol Notes: DIMSCAN cytotoxicity, fenretinide + L-threo-sphinganines 3:1 (Example B19)
- Format: cell-based, human
- Condition Label: 4-HPR 1.5 μM + L-threo-sphinganine 0.5 μM
Number only, no unit.

Compound	CI
CCCCCCCCC[C@H](O)[C@@H](N)CO [C12]	1.0
CCCCCCCCCCCCCCCC[C@H](O)[C@@H](N)CO [C19, (2S,3S)-2-amino-1,3-nonadecanediol]	1.9
CCCCCCCCCCCCCC[C@H](O)[C@@H](N)CO [C17, (2S,3S)-2-amino-1,3-heptadecanediol]	1.5

Measured CI for this entry CCCCCCCCCCCCCCCCC[C@H](O)[C@@H](N)CO [C20, (2S,3S)-2-amino-1,3-icosanediol] on OE-33 esophageal adenocarcinoma cell line: 1.9

----------
- Tested on: A-549 lung adenocarcinoma cell line
- Protocol Notes: DIMSCAN cytotoxicity, fenretinide + L-threo-sphinganines 3:1 (Example B13)
- Assay type: cell-based, human
- Condition Label: 4-HPR 1.5 μM + L-threo-sphinganine 0.5 μM, 96 h
I'd appreciate it if you marked entries true when CI (Combination Index) is lower than 2 and false when it is not.

Here's what some known entries look like.
Compound	Assigned Label
CCCCCCCCCCCCCCCCCC[C@H](O)[C@@H](N)CO	true
CCCCCCCCCCCC[C@H](O)[C@@H](N)CO	true
CCCCCCCCC[C@H](O)[C@@H](N)CO	false
CCCCCCCCCCCCCCCCC[C@H](O)[C@@H](N)CO	false
CCCCCCCCCCCCCC[C@H](O)[C@@H](N)CO	true

Quick check: does CCCCCCCCCCCCCCCC[C@H](O)[C@@H](N)CO have CI (Combination Index) under 2?
true

Quick check: does CCCCCCCCCCC[C@H](O)[C@@H](N)CO have CI (Combination Index) under 2?
true

Quick check: CI (Combination Index) of CCCCCCCCCCCCCCC[C@H](O)[C@@H](N)CO [C18, (2S,3S)-2-amino-1,3-octadecanediol, reference compound] under 2?
true

----------
- Tested on: PC-3 prostate adenocarcinoma cell line
- Protocol Notes: DIMSCAN cytotoxicity, fenretinide + L-threo-sphinganines 3:1 (Example B17)
- Assay type: cell-based, human
- Condition Label: 4-HPR 6 μM + L-threo-sphinganine 2 μM
Sorting guide: entries reporting CI beneath 1 go in the TRUE pile, the rest go in the FALSE pile.

Compound	Assigned Label
CCCCCCCCCCCCCC[C@H](O)[C@@H](N)CO [C17, (2S,3S)-2-amino-1,3-heptadecanediol]	TRUE
CCCCCCCCC[C@H](O)[C@@H](N)CO [C12]	TRUE
CCCCCCCCCCCC[C@H](O)[C@@H](N)CO [C15]	FALSE
CCCCCCCCCCCCCCCCC[C@H](O)[C@@H](N)CO [C20, (2S,3S)-2-amino-1,3-icosanediol]	FALSE
CCCCCCCCCCCCCCC[C@H](O)[C@@H](N)CO [C18, (2S,3S)-2-amino-1,3-octadecanediol, reference compound]	FALSE

Record CCCCCCCCCCCCCCCCCC[C@H](O)[C@@H](N)CO [C21] : is its CI strictly below 1?
FALSE

Quick check: CI of CCCCCCCCCCC[C@H](O)[C@@H](N)CO [C14] under 1?
FALSE

Could you please tell me whether CI recorded for CCCCCCCCCCCCCCCC[C@H](O)[C@@H](N)CO [C19, (2S,3S)-2-amino-1,3-nonadecanediol] is less than 1?
FALSE

----------
- System: A-549 lung adenocarcinoma cell line
- Protocol Notes: DIMSCAN cytotoxicity, fenretinide + L-threo-sphinganines 3:1 (Example B13)
- Format: cell-based, human
- Condition Label: 4-HPR 1.5 μM + L-threo-sphinganine 0.5 μM, 96 h
Measure: Fa (fraction affected)
No unit in the answer, only the number.

Molecule	Measure	Val
CCCCCCCCCCCCCCCC[C@H](O)[C@@H](N)CO	Fa (fraction affected)	0.000
CCCCCCCCCCCCCCCCC[C@H](O)[C@@H](N)CO	Fa (fraction affected)	0.000
CCCCCCCCCCCCCC[C@H](O)[C@@H](N)CO	Fa (fraction affected)	0.01
CCCCCCCCC[C@H](O)[C@@H](N)CO	Fa (fraction affected)	0.01
CCCCCCCCCCCCCCCCCC[C@H](O)[C@@H](N)CO	Fa (fraction affected)	0.078

According to the records, this molecule CCCCCCCCCCCC[C@H](O)[C@@H](N)CO displays Fa (fraction affected) of 0.000

GET /value?item= CCCCCCCCCCCCCCC[C@H](O)[C@@H](N)CO [C18, (2S,3S)-2-amino-1,3-octadecanediol, reference compound] &field=Fa (fraction affected) returns 0.012

Record CCCCCCCCCCC[C@H](O)[C@@H](N)CO , field Fa (fraction affected): 0.01

----------
- Test system: MDA-MB-231 breast adenocarcinoma cell line
- Protocol Notes: DIMSCAN cytotoxicity, fenretinide + L-threo-sphinganines 3:1 (Example B14)
- Format: cell-based, human
- Condition Label: MDA-MB-231, 20% O2; 4-HPR 9 μM + L-threo-sphinganine 3 μM; 96 h
- Method: Cytotoxicity Assay—Once again, cytotoxicity is determined using the DIMSCAN assay system (R. Proffitt et al., Cytometry 24, 204-213 (1996); T. Frgala et al., Mol Cancer Ther. 6:886-97, 2007). The system employs digital imaging microscopy to quantify viable cells, which selectively accumulate fluorescein diacetate to become brightly fluorescent. […] Measured fluorescence is directly proportionate to the number of viable cells. […]
Measure: Fa (fraction affected)
Answer using only a numeral; do not append any unit.

Please review the entries below; each comes with its answer.
Compound	Assay Target	Fa (fraction affected)
CCCCCCCCCCCCCCCCC[C@H](O)[C@@H](N)CO	MDA-MB-231 breast adenocarcinoma cell line	0.664
CCCCCCCCCCCCCCCC[C@H](O)[C@@H](N)CO	MDA-MB-231 breast adenocarcinoma cell line	0.909
CCCCCCCCCCCCCC[C@H](O)[C@@H](N)CO	MDA-MB-231 breast adenocarcinoma cell line	0.948
CCCCCCCCC[C@H](O)[C@@H](N)CO	MDA-MB-231 breast adenocarcinoma cell line	0.720

Kindly note the recorded Fa (fraction affected) for CCCCCCCCCCCCCCC[C@H](O)[C@@H](N)CO [C18, (2S,3S)-2-amino-1,3-octadecanediol, reference compound] , which is 0.922

----------
This section presents molecules with their documented CI values.
- Tested on: COG-LL-317 acute lymphoblastic leukemia cell line
- Protocol Notes: DIMSCAN cytotoxicity, fenretinide + L-threo-sphinganines 3:1 (Example B20)
- Assay type: cell-based, human
- Condition Label: 4-HPR 6 μM + L-threo-sphinganine 2 μM
Give a plain numeric answer without units written out.

Below, each entry is followed by its recorded CI result.
Molecule	CI
CCCCCCCCCCCCCCC[C@H](O)[C@@H](N)CO [C18, (2S,3S)-2-amino-1,3-octadecanediol, reference compound]	0.6
CCCCCCCCCCCCCCCCC[C@H](O)[C@@H](N)CO	0.3
CCCCCCCCCCCCCCCC[C@H](O)[C@@H](N)CO	0.4

Lab note: measured CI of CCCCCCCCCCCCCC[C@H](O)[C@@H](N)CO was 1.3
